Target: Aurora kinase A (Homo sapiens, UniProt O14965)
Sequence (O14965 whole entry): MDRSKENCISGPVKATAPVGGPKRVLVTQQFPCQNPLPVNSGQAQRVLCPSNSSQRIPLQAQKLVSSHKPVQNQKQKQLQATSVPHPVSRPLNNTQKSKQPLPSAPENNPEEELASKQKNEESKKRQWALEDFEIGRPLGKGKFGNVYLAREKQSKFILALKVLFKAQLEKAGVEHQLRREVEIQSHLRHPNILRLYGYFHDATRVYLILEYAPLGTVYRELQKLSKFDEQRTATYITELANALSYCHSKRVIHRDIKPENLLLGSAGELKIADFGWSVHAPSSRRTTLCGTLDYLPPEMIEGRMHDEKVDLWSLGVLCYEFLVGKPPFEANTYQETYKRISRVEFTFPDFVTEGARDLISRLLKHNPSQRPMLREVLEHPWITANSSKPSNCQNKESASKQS
Test: Inhibition of human recombinant Aurora A kinase using biotinylated peptide substrate preincubated for 15 mins with compound measured after 30 mins by fluorescence analysis
Kindly supply the reported IC50 values for the records listed here.
Output spec: scalar in nM, unitless text.

Return value of IC50 for input `CCOc1ccc(NC(=O)c2cn(-c3ccccc3)nc2-c2ccc([N+](=O)[O-])cc2)cc1` , no commentary. 160

Return value of IC50 for input `O=C(Nc1ccc(Br)cc1)c1cn(-c2ccccc2)nc1-c1ccc([N+](=O)[O-])cc1` , no commentary. 5520

Return value of IC50 for input `CCOc1ccc(NC(=O)c2cn(-c3ccccc3)nc2-c2ccc(Cl)cc2)cc1` , no commentary. 220

Return value of IC50 for input `CCOc1ccc(NC(=O)c2cn(-c3ccccc3)nc2-c2ccc(C)cc2)cc1` , no commentary. 650

----------
Tested on: HCT-116
Test: Cytotoxicity against human HCT116 cells after 48 hrs by MTT assay
Assay type: functional, cell-based
Settings: HCT-116, 48 h
observable: pIC50
Worth noting: pIC50 values are minus log10 of concentrations stated in mol/L.

Return value of pIC50 for input `O=C(Nc1ccc(Cl)cc1)c1cn(-c2ccccc2)nc1-c1ccc(Cl)cc1` , no commentary. 5.52

Return value of pIC50 for input `O=C(Nc1ccccc1)c1cn(-c2ccccc2)nc1-c1ccccc1` , no commentary. 5.64

Return value of pIC50 for input `O=C(Nc1ccc(Br)cc1)c1cn(-c2ccccc2)nc1-c1ccccc1` , no commentary. 5.35

Return value of pIC50 for input `COc1ccc(-c2nn(-c3ccccc3)cc2C(=O)Nc2ccc(Br)cc2)cc1` , no commentary. 5.23

Return value of pIC50 for input `COc1ccc(NC(=O)c2cn(-c3ccccc3)nc2-c2ccc(Cl)cc2)cc1` , no commentary. 5.88

----------
System: HCT-116
Experiment: Cytotoxicity against human HCT116 cells after 48 hrs by MTT assay
Format: functional, cell-based
Details: HCT-116, 48 h
# note: boundary value 1000 nM maps to 0 (no); IC50 below it maps to 1 (yes)

Determine whether this molecule shows IC50 lower than 1000 nM (ties excluded): `COc1ccc(NC(=O)c2cn(-c3ccccc3)nc2-c2ccc(OC)cc2)cc1` 0 (no)

Determine whether this molecule shows IC50 lower than 1000 nM (ties excluded): `CCOc1ccc(NC(=O)c2cn(-c3ccccc3)nc2-c2ccc([N+](=O)[O-])cc2)cc1` 1 (yes)

Determine whether this molecule shows IC50 lower than 1000 nM (ties excluded): `Cc1ccc(-c2nn(-c3ccccc3)cc2C(=O)Nc2ccc(Cl)cc2)cc1` 0 (no)

Determine whether this molecule shows IC50 lower than 1000 nM (ties excluded): `Cc1ccc(-c2nn(-c3ccccc3)cc2C(=O)Nc2ccc(Br)cc2)cc1` 0 (no)

Determine whether this molecule shows IC50 lower than 1000 nM (ties excluded): `COc1ccc(NC(=O)c2cn(-c3ccccc3)nc2-c2ccccc2)cc1` 0 (no)

Determine whether this molecule shows IC50 lower than 1000 nM (ties excluded): `O=C(Nc1ccc(Br)cc1)c1cn(-c2ccccc2)nc1-c1ccc(Cl)cc1` 0 (no)

Determine whether this molecule shows IC50 lower than 1000 nM (ties excluded): `COc1ccc(-c2nn(-c3ccccc3)cc2C(=O)Nc2ccc(Cl)cc2)cc1` 0 (no)

Determine whether this molecule shows IC50 lower than 1000 nM (ties excluded): `O=C(Nc1ccccc1)c1cn(-c2ccccc2)nc1-c1ccc(Cl)cc1` 0 (no)

Determine whether this molecule shows IC50 lower than 1000 nM (ties excluded): `Cc1ccc(-c2nn(-c3ccccc3)cc2C(=O)Nc2ccccc2)cc1` 0 (no)

Determine whether this molecule shows IC50 lower than 1000 nM (ties excluded): `O=C(Nc1ccccc1)c1cn(-c2ccccc2)nc1-c1ccc([N+](=O)[O-])cc1` 0 (no)

Determine whether this molecule shows IC50 lower than 1000 nM (ties excluded): `O=C(Nc1ccc(Br)cc1)c1cn(-c2ccccc2)nc1-c1ccc([N+](=O)[O-])cc1` 0 (no)

Determine whether this molecule shows IC50 lower than 1000 nM (ties excluded): `CCOc1ccc(NC(=O)c2cn(-c3ccccc3)nc2-c2ccc(Cl)cc2)cc1` 1 (yes)

Determine whether this molecule shows IC50 lower than 1000 nM (ties excluded): `CCOc1ccc(NC(=O)c2cn(-c3ccccc3)nc2-c2ccccc2)cc1` 1 (yes)

Determine whether this molecule shows IC50 lower than 1000 nM (ties excluded): `COc1ccc(NC(=O)c2cn(-c3ccccc3)nc2-c2ccc(C)cc2)cc1` 0 (no)

Determine whether this molecule shows IC50 lower than 1000 nM (ties excluded): `CCOc1ccc(NC(=O)c2cn(-c3ccccc3)nc2-c2ccc(C)cc2)cc1` 1 (yes)

Determine whether this molecule shows IC50 lower than 1000 nM (ties excluded): `O=C(Nc1ccc(Cl)cc1)c1cn(-c2ccccc2)nc1-c1ccccc1` 0 (no)

Determine whether this molecule shows IC50 lower than 1000 nM (ties excluded): `O=C(Nc1ccc(Cl)cc1)c1cn(-c2ccccc2)nc1-c1ccc([N+](=O)[O-])cc1` 0 (no)

Determine whether this molecule shows IC50 lower than 1000 nM (ties excluded): `COc1ccc(-c2nn(-c3ccccc3)cc2C(=O)Nc2ccccc2)cc1` 0 (no)

----------
System: MCF7
Assay: Cytotoxicity against human MCF7 cells after 48 hrs by MTT assay
Type: functional, cell-based
Settings: MCF7, 48 h
Kindly supply the reported pIC50 values for the records listed here.
Worth noting: pIC50 values are minus log10 of concentrations stated in mol/L.

Return value of pIC50 for input `Cc1ccc(-c2nn(-c3ccccc3)cc2C(=O)Nc2ccc(Br)cc2)cc1` , no commentary. 5.22

Return value of pIC50 for input `O=C(Nc1ccc(Cl)cc1)c1cn(-c2ccccc2)nc1-c1ccc(Cl)cc1` , no commentary. 5.43

Return value of pIC50 for input `COc1ccc(-c2nn(-c3ccccc3)cc2C(=O)Nc2ccccc2)cc1` , no commentary. 5.60

Return value of pIC50 for input `O=C(Nc1ccccc1)c1cn(-c2ccccc2)nc1-c1ccc([N+](=O)[O-])cc1` , no commentary. 5.65

Return value of pIC50 for input `Cc1ccc(-c2nn(-c3ccccc3)cc2C(=O)Nc2ccc(Cl)cc2)cc1` , no commentary. 5.40

Return value of pIC50 for input `COc1ccc(NC(=O)c2cn(-c3ccccc3)nc2-c2ccc(Cl)cc2)cc1` , no commentary. 5.81

Return value of pIC50 for input `O=C(Nc1ccc(Br)cc1)c1cn(-c2ccccc2)nc1-c1ccccc1` , no commentary. 5.24

Return value of pIC50 for input `COc1ccc(NC(=O)c2cn(-c3ccccc3)nc2-c2ccc([N+](=O)[O-])cc2)cc1` , no commentary. 5.92

Return value of pIC50 for input `O=C(Nc1ccc(Cl)cc1)c1cn(-c2ccccc2)nc1-c1ccc([N+](=O)[O-])cc1` , no commentary. 5.49

Return value of pIC50 for input `CCOc1ccc(NC(=O)c2cn(-c3ccccc3)nc2-c2ccc(C)cc2)cc1` , no commentary. 5.99

----------
Tested on: MCF7
Assay: Cytotoxicity against human MCF7 cells after 48 hrs by MTT assay
Format: functional, cell-based
Conditions: MCF7, 48 h
pIC50: −log10 of the molar value.
Give yes (1) when the value for pIC50 is at least 6. Give no (0) when it is less.

Tell me whether pIC50 is at least 6 here: Cc1cc(Nc2cc(N3CCN(C)CC3)nc(Sc3ccc(NC(=O)C4CC4)cc3)n2)n[nH]1 [TOZASERTIB] yes (1)

Tell me whether pIC50 is at least 6 here: `O=C(Nc1ccc(Cl)cc1)c1cn(-c2ccccc2)nc1-c1ccccc1` no (0)

Tell me whether pIC50 is at least 6 here: `O=C(Nc1ccccc1)c1cn(-c2ccccc2)nc1-c1ccc(Cl)cc1` no (0)

Tell me whether pIC50 is at least 6 here: `COc1ccc(NC(=O)c2cn(-c3ccccc3)nc2-c2ccccc2)cc1` no (0)

Tell me whether pIC50 is at least 6 here: `COc1ccc(NC(=O)c2cn(-c3ccccc3)nc2-c2ccc(OC)cc2)cc1` no (0)

Tell me whether pIC50 is at least 6 here: `COc1ccc(NC(=O)c2cn(-c3ccccc3)nc2-c2ccc(C)cc2)cc1` no (0)

Tell me whether pIC50 is at least 6 here: `COc1ccc(-c2nn(-c3ccccc3)cc2C(=O)Nc2ccc(Cl)cc2)cc1` no (0)

Tell me whether pIC50 is at least 6 here: `CCOc1ccc(NC(=O)c2cn(-c3ccccc3)nc2-c2ccc(Cl)cc2)cc1` yes (1)

Tell me whether pIC50 is at least 6 here: `Cc1ccc(-c2nn(-c3ccccc3)cc2C(=O)Nc2ccccc2)cc1` no (0)

----------
Tested on: MCF7
Test: Cytotoxicity against human MCF7 cells after 48 hrs by MTT assay
Format: functional, cell-based
Conditions: MCF7, 48 h
Kindly supply the reported pIC50 values for the records listed here.
Worth noting: pIC50 values are minus log10 of concentrations stated in mol/L.

Return value of pIC50 for input `O=C(Nc1ccc(Br)cc1)c1cn(-c2ccccc2)nc1-c1ccc([N+](=O)[O-])cc1` , no commentary. 5.28

Return value of pIC50 for input `O=C(Nc1ccc(Br)cc1)c1cn(-c2ccccc2)nc1-c1ccc(Cl)cc1` , no commentary. 5.27

Return value of pIC50 for input `COc1ccc(-c2nn(-c3ccccc3)cc2C(=O)Nc2ccc(Br)cc2)cc1` , no commentary. 5.09

Return value of pIC50 for input `CCOc1ccc(NC(=O)c2cn(-c3ccccc3)nc2-c2ccc([N+](=O)[O-])cc2)cc1` , no commentary. 6.34

Return value of pIC50 for input `O=C(Nc1ccccc1)c1cn(-c2ccccc2)nc1-c1ccccc1` , no commentary. 5.63
